Recorded values, source paper PMC8182377.

Target: cYibK (cYibK_lo, backbone-cyclized PaYibK) (Pseudomonas aeruginosa)
Construct: recombinant in E. coli ER2566 from pITRSF3D (SUMO fusion cut, LPETG-H6), N and C termini joined by S. aureus sortase A through a nine-residue linker, His-tag removed by ligation; backbone-cyclized, homodimer
Experiment: isothermal titration calorimetry
value_kind: Kd (µM)
Give the value in µM but do not write µM after it.

Asked: What measured Kd goes with Nc1ncnc2c1ncn2[C@@H]1O[C@H](CSCC[C@H](N)C(=O)O)[C@@H](O)[C@H]1O [S-adenosyl-L-homocysteine] ?
Given back: 8.93

---

Biological target: lYibK (linear PaYibK_lo) (Pseudomonas aeruginosa)
Construct: recombinant in E. coli ER2566 from pBHRSF260, N-terminal His-SUMO fusion cut by Ulp1; homodimer
Sequence (Q9HU57 1-153): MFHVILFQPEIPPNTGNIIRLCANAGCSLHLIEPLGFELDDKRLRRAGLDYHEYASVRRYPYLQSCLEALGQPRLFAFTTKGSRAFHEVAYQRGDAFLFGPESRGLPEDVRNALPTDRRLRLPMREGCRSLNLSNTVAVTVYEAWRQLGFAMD
Assay: isothermal titration calorimetry
value_kind: pKd
// field semantics: pKd = negative decimal log of concentration (mol/L)

Asked: What measured pKd goes with Nc1ncnc2c1ncn2[C@@H]1O[C@H](CSCC[C@H](N)C(=O)O)[C@@H](O)[C@H]1O [S-adenosyl-L-homocysteine] ?
Given back: 5.06
